Entry source: ChEMBL document CHEMBL1949556

molecular target: Endothelial lipase (Homo sapiens); assay: Inhibition of human endothelial lipase expressed using recombinant adenovirus using glycerol-tri[9,10(n)-3H]oleate after 1 hr by vesicle assay
parameter: IC50 (nM)
Entry rule: numbers only, all in nM.

{"structureString": "CCCCCc1ccc(B(O)O)cc1", "measurementUnit": "nM", "IC50": 1000}

Input line: Specify IC50 for CC1(C)OB(c2ccc(-c3cccs3)cc2)OC1(C)C and stop.
Output line: 1900

Input line: For CCCCCc1cccc(B2OC(C)(C)C(C)(C)O2)c1 , write its IC50.
Output line: 4200

Input line: In one line, give reported IC50 of the entry CCCCCCCc1ccc(B(O)O)cc1 .
Output line: 1700

Input line: Report IC50 for CCCCCCCc1ccc(B2OC(C)(C)C(C)(C)O2)cc1
Output line: 3500

Input line: Entry CCCCCCCCCc1ccc(B2OC(C)(C)C(C)(C)O2)cc1 needs its IC50 filled in; supply it.
Output line: 2500

Input line: // Input: CCCc1ccc(B(O)O)cc1 . Output its IC50 only.
Output line: 2000

###

biological target: Endothelial lipase (Homo sapiens); assay: Inhibition of human endothelial lipase overexpressed in HUVEC cells using bis-BD-PC and mono-BD-TG as substrate incubated for 10 mins prior to substrate addition by micelle assay; format: cell-based
parameter: pIC50
The quantity pIC50 is defined as the negative base-10 logarithm of the molar concentration.

Please review the entries below; each comes with its answer.
{"compound": "CC1(C)OB(c2ccc(-c3ccco3)cc2)OC1(C)C", "pIC50": 5.89}
{"compound": "CCc1ccc(B(O)O)cc1", "pIC50": 4.72}
{"compound": "CC1(C)OB(c2ccc(-c3ccc(F)cc3)cc2)OC1(C)C", "pIC50": 5.96}
{"compound": "CCCc1ccc(B2OC(C)(C)C(C)(C)O2)cc1", "pIC50": 5.22}
{"compound": "CC1(C)OB(c2ccc(-c3ccoc3)cc2)OC1(C)C", "pIC50": 5.54}

Now for another entry.
Input line: Identify measured pIC50 obtained with Endothelial lipase (Homo sapiens) for CC1(C)OB(c2ccc(-c3ccc4ccccc4c3)cc2)OC1(C)C .
Output line: 5.77

###

Biological target: UniProt Q9Y5X9
Sequence (whole entry): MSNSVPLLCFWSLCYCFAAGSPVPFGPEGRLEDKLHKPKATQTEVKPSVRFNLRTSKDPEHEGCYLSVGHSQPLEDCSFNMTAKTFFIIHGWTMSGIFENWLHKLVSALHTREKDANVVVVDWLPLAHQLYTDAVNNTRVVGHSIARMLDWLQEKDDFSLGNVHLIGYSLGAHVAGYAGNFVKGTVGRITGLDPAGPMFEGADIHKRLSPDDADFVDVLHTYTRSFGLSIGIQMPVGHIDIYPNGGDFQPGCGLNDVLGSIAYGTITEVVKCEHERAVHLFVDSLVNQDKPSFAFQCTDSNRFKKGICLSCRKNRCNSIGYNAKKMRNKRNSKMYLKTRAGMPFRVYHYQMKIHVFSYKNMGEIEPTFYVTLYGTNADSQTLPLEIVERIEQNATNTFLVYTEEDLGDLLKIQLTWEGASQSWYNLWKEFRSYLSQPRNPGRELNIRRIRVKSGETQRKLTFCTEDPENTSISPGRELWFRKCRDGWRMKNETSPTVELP
Experiment: Inhibition of human endothelial lipase expressed using recombinant adenovirus using glycerol-tri[9,10(n)-3H]oleate at 50 uM after 1 hr by vesicle assay
Each entry below lists one item and its recorded inhibition value.
// return numeric value only (unit: %, not printed)

// solved cases for inhibition follow
{"structureString": "CCCCCCCCCCCCCCCC(=O)CCl", "inhibition [%]": 10}
{"structureString": "CCCCCCCCCCCCCCCC(=O)C(F)(F)F", "inhibition [%]": 56}

Input line: Give the reported inhibition for this molecule. CCCCCCCCCCCCCCCC=O
Output line: 7

Input line: Look up inhibition of CCCCCCCCCCCCCCCB(O)O and report it.
Output line: 90

Input line: Note down inhibition recorded for CCCCCCCCCCCCCCCC#N
Output line: 4

###

target: Lipoprotein lipase (Homo sapiens, UniProt P06858); assay: Inhibition of human lipoprotein lipase expressed in HEK293 cells using bis-BD-PC and mono-BD-TG as substrate incubated for 10 mins prior to substrate addition by micelle assay
Sequence (P06858 whole entry): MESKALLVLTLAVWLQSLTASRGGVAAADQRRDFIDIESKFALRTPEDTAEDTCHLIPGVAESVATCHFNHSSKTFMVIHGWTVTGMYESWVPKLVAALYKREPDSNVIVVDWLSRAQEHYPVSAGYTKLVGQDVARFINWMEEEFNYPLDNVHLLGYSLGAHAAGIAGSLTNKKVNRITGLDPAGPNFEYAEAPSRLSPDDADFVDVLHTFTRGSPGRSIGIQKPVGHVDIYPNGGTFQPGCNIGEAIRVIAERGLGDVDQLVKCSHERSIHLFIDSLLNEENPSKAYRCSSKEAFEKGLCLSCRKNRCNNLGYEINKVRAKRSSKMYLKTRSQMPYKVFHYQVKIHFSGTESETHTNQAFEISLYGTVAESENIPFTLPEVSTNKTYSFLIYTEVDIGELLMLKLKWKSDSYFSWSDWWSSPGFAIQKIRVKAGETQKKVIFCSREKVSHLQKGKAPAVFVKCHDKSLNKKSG
parameter: pIC50
Please report pIC50 as the negative decimal logarithm of the molar concentration, giving only the number.

Below, 5 molecules whose answers are already recorded.
{"structureString": "CCCCCCCc1ccc(B(O)O)cc1", "pIC50": 5.05}
{"structureString": "CCc1ccc(B(O)O)cc1", "pIC50": 4.70}
{"structureString": "CCCCCCCCCc1ccc(B2OC(C)(C)C(C)(C)O2)cc1", "pIC50": 4.82}
{"structureString": "CCCCCCCCCCCc1ccc(B2OC(C)(C)C(C)(C)O2)cc1", "pIC50": 4.82}
{"structureString": "CCCc1ccc(B(O)O)cc1", "pIC50": 4.90}

Input line: Determine from records and report pIC50 for CCCc1ccc(B2OC(C)(C)C(C)(C)O2)cc1
Output line: 4.60

Input line: For the molecule CC1(C)OB(c2ccc(-c3ccc4ccccc4c3)cc2)OC1(C)C , give its reported pIC50.
Output line: 4.82

Input line: State its pIC50: CCCCCc1ccc(B(O)O)cc1
Output line: 5.42

Input line: Return reported pIC50. Input molecule: CCCCCc1ccc(B2OC(C)(C)C(C)(C)O2)cc1
Output line: 4.68

Input line: Note down pIC50 recorded for CCCCCc1cccc(B2OC(C)(C)C(C)(C)O2)c1
Output line: 4.00

###

species: Homo sapiens; experiment: Selectivity ratio of IC50 for human lipoprotein lipase by micelle assay to IC50 for human endothelial lipase by micelle assay
Each entry gets Condition not met if its Ratio IC50 stays under 20, and Condition met if its Ratio IC50 is 20 or above.

# count of solved cases: 8
{"molecule": "CC1(C)OB(c2ccc(-c3ccc4ccccc4c3)cc2)OC1(C)C", "label": "Condition not met"}
{"molecule": "CCCc1ccc(B(O)O)cc1", "label": "Condition not met"}
{"molecule": "CC1(C)OB(c2ccc(-c3ccc(F)cc3)cc2)OC1(C)C", "label": "Condition met"}
{"molecule": "CCCCCCCCCCCc1ccc(B(O)O)cc1", "label": "Condition not met"}
{"molecule": "CC1(C)OB(c2ccc(-c3ccsc3)cc2)OC1(C)C", "label": "Condition not met"}
{"molecule": "CCCCCc1cccc(B2OC(C)(C)C(C)(C)O2)c1", "label": "Condition not met"}
{"molecule": "CC1(C)OB(c2ccc(-c3ccco3)cc2)OC1(C)C", "label": "Condition met"}
{"molecule": "CC1(C)OB(c2ccc(-c3ccoc3)cc2)OC1(C)C", "label": "Condition not met"}

Input line: Is the recorded value of Ratio IC50 equal to or greater than 20 for this molecule? CCCCCCCCCCCc1ccc(B2OC(C)(C)C(C)(C)O2)cc1
Output line: Condition not met

Input line: Could you tell me if the measured Ratio IC50 of CCc1ccc(B(O)O)cc1 reaches 20 or more?
Output line: Condition not met

Input line: Is it the case that CCCCCc1ccc(B2OC(C)(C)C(C)(C)O2)cc1 has Ratio IC50 reaching or exceeding 20?
Output line: Condition not met

Input line: Answer whether Ratio IC50 of CCCCCCCc1ccc(B(O)O)cc1 is greater than or equal to 20.
Output line: Condition met

Input line: Test whether the molecule CC1(C)OB(c2ccc(-c3cccs3)cc2)OC1(C)C records Ratio IC50 of 20 or higher.
Output line: Condition met

Input line: Tell me whether Ratio IC50 is at least 20 here: CCCCCCCCCc1cccc(B(O)O)c1
Output line: Condition not met

Input line: Is Ratio IC50 at least 20? Consider CCCCCCCc1ccc(B2OC(C)(C)C(C)(C)O2)cc1
Output line: Condition not met

Input line: Is Ratio IC50 at least 20? Consider CC1(C)OB(c2ccc(-c3ccccc3)cc2)OC1(C)C
Output line: Condition not met

Input line: Hi, just wondering whether CCCCCc1ccc(B(O)O)cc1 shows Ratio IC50 of 20 or higher.
Output line: Condition not met

Input line: Decide: Ratio IC50 of Cc1ccc(B(O)O)cc1 [TOLYL BORONIC ACID] >= 20?
Output line: Condition not met

Input line: Decide: is the reported value of Ratio IC50 for CCCCCCCCCc1ccc(B2OC(C)(C)C(C)(C)O2)cc1 equal to or greater than 20?
Output line: Condition not met

Input line: Does the molecule CCCCCCCCCc1ccccc1B(O)O have recorded Ratio IC50 that is 20 or more?
Output line: Condition met

Input line: Given CCCCCc1cccc(B(O)O)c1 , state whether its Ratio IC50 is at least 20.
Output line: Condition not met

Input line: Given the entry CCCCCCCCCc1ccc(B(O)O)cc1 , answer whether its Ratio IC50 meets or surpasses 20.
Output line: Condition not met

Input line: Is Ratio IC50 for CCCc1ccc(B2OC(C)(C)C(C)(C)O2)cc1 at or above 20?
Output line: Condition not met
